Each entry below carries its recorded log10 Ki.
target: 5-hydroxytryptamine receptor 1A (Homo sapiens); experiment: biochemical
Sequence (P08908 whole entry): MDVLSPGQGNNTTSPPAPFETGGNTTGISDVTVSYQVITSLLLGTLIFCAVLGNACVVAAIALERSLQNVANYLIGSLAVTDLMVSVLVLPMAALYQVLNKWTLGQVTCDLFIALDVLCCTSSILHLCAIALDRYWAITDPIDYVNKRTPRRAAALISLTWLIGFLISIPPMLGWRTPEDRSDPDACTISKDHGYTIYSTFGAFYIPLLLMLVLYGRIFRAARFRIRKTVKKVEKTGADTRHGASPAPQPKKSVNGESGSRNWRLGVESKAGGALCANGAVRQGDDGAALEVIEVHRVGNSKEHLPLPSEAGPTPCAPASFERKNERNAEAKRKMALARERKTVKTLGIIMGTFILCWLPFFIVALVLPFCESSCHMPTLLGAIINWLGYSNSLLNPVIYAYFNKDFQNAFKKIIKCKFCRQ
Measured quantity: log10 Ki (log10 of the value in nM)

[
  {
    "Compound": "O=C1CC(c2c[nH]c3ccccc23)C(=O)N1CCCCN1CCCC(c2c[nH]c3ccc(F)cc23)C1 (configuration not stated)",
    "log10 Ki": 2.26
  },
  {
    "Compound": "O=C1CC(c2c[nH]c3ccc(F)cc23)C(=O)N1CCN1CCC(c2c[nH]c3ccccc23)CC1 (configuration not stated)",
    "log10 Ki": 2.51
  },
  {
    "Compound": "O=C1CC(c2c[nH]c3ccc(F)cc23)C(=O)N1CCCCN1CCC(c2c[nH]c3ccccc23)CC1 (configuration not stated)",
    "log10 Ki": 1.11
  },
  {
    "Compound": "COc1ccc2[nH]cc(C3CCN(CCCCN4C(=O)CC(c5c[nH]c6ccc(OC)cc56)C4=O)CC3)c2c1 (configuration not stated)",
    "log10 Ki": 0.36
  },
  {
    "Compound": "COc1ccc2[nH]cc(C3CC(=O)N(CCCN4CCC(c5c[nH]c6ccc(F)cc56)CC4)C3=O)c2c1 (configuration not stated)",
    "log10 Ki": 2.39
  },
  {
    "Compound": "COc1ccc2[nH]cc(C3CC(=O)N(CCCN4CCC(c5c[nH]c6ccccc56)CC4)C3=O)c2c1 (configuration not stated)",
    "log10 Ki": 2.31
  },
  {
    "Compound": "COc1ccc2[nH]cc(C3CC(=O)N(CCN4CCC(c5c[nH]c6ccccc56)CC4)C3=O)c2c1 (configuration not stated)",
    "log10 Ki": 1.69
  },
  {
    "Compound": "O=C1CC(c2c[nH]c3ccc(F)cc23)C(=O)N1CCN1CCC(c2c[nH]c3ccc(F)cc23)CC1 (configuration not stated)",
    "log10 Ki": 2.85
  },
  {
    "Compound": "COc1ccc2[nH]cc(C3CCCN(CCCCN4C(=O)CC(c5c[nH]c6ccc(OC)cc56)C4=O)C3)c2c1 (configuration not stated)",
    "log10 Ki": 1.72
  },
  {
    "Compound": "COc1ccc2[nH]cc(C3CCN(CCCCN4C(=O)CC(c5c[nH]c6ccc(F)cc56)C4=O)CC3)c2c1 (configuration not stated)",
    "log10 Ki": 0.51
  },
  {
    "Compound": "O=C1CC(c2c[nH]c3ccc(F)cc23)C(=O)N1CCCCN1CCC(c2c[nH]c3ccc(F)cc23)CC1 (configuration not stated)",
    "log10 Ki": 0.85
  },
  {
    "Compound": "COc1ccc2[nH]cc(C3CC(=O)N(CCCCN4CCC(c5c[nH]c6ccccc56)CC4)C3=O)c2c1 (configuration not stated)",
    "log10 Ki": 0.80
  },
  {
    "Compound": "COc1ccc2[nH]cc(C3CCN(CCCN4C(=O)CC(c5c[nH]c6ccc(F)cc56)C4=O)CC3)c2c1 (configuration not stated)",
    "log10 Ki": 2.20
  },
  {
    "Compound": "COc1ccc2[nH]cc(C3CCN(CCN4C(=O)CC(c5c[nH]c6ccc(OC)cc56)C4=O)CC3)c2c1 (configuration not stated)",
    "log10 Ki": 2.38
  },
  {
    "Compound": "COc1ccc2[nH]cc(C3CCN(CCCN4C(=O)CC(c5c[nH]c6ccc(OC)cc56)C4=O)CC3)c2c1 (configuration not stated)",
    "log10 Ki": 1.84
  },
  {
    "Compound": "O=C1CC(c2c[nH]c3ccccc23)C(=O)N1CCCCN1CCCC(c2c[nH]c3ccccc23)C1 (configuration not stated)",
    "log10 Ki": 2.09
  }
]

----------
target: 5-hydroxytryptamine receptor 2B (Homo sapiens, UniProt P41595)
Sequence (P41595 whole entry): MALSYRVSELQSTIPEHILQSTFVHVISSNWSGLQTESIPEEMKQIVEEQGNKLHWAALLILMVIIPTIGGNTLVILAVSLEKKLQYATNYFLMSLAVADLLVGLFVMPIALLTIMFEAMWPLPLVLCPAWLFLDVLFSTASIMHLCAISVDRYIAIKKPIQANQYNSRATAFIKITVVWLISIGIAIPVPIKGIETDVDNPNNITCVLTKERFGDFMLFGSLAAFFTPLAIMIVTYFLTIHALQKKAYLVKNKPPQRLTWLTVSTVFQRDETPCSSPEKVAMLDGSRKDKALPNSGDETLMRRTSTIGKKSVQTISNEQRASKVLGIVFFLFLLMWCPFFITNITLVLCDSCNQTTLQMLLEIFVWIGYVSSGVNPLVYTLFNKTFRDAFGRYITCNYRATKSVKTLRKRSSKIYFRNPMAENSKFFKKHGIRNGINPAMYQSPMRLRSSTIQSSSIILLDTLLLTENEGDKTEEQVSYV
pKi: −log10 of the molar value.
Measured quantity: pKi

[
  {
    "Mol smiles": "O=c1ccc2ccc(OCCCCN3CCN(c4cccc5sccc45)CC3)cc2[nH]1",
    "Measured quantity": "pKi",
    "Value": 9.40
  }
]

----------
tested on: Mus musculus; assay: Induction of hypothermia in CD-1 mouse assessed as change in body temperature at 20 mg/kg, ip measured after 90 mins by thermometric method; format: functional, organism-based
// assign y if deltaT falls strictly below -0.6 °C, else n (ties count as n)

[
  {
    "Compound": "COc1ccc2[nH]cc(C3CC(=O)N(CCCCN4CCC(c5c[nH]c6ccc(F)cc56)CC4)C3=O)c2c1 (configuration not stated)",
    "Target entity": "Mus musculus",
    "Discrete label": "n"
  },
  {
    "Compound": "O=C1CC(c2c[nH]c3ccccc23)C(=O)N1CCCCN1CCC(c2c[nH]c3ccc(F)cc23)CC1 (configuration not stated)",
    "Target entity": "Mus musculus",
    "Discrete label": "n"
  },
  {
    "Compound": "O=C1CC(c2c[nH]c3ccc(F)cc23)C(=O)N1CCCCN1CCC(c2c[nH]c3ccccc23)CC1 (configuration not stated)",
    "Target entity": "Mus musculus",
    "Discrete label": "n"
  },
  {
    "Compound": "O=C1CC(c2c[nH]c3ccc(F)cc23)C(=O)N1CCCCN1CCC(c2c[nH]c3ccc(F)cc23)CC1 (configuration not stated)",
    "Target entity": "Mus musculus",
    "Discrete label": "n"
  },
  {
    "Compound": "COc1ccc2[nH]cc(C3CC(=O)N(CCCCN4CCC(c5c[nH]c6ccccc56)CC4)C3=O)c2c1 (configuration not stated)",
    "Target entity": "Mus musculus",
    "Discrete label": "y"
  }
]

----------
test system: Mus musculus; test: Induction of hypothermia in CD-1 mouse assessed as change in body temperature at 20 mg/kg, ip measured after 60 mins by thermometric method; format: functional, organism-based
In this section we review reported deltaT values for a set of compounds.

[
  {
    "Compound": "O=C1CC(c2c[nH]c3ccccc23)C(=O)N1CCCCN1CCC(c2c[nH]c3ccc(F)cc23)CC1 (centres undefined)",
    "deltaT, °C": -1
  },
  {
    "Compound": "O=C1CC(c2c[nH]c3ccc(F)cc23)C(=O)N1CCCCN1CCC(c2c[nH]c3ccccc23)CC1 (centres undefined)",
    "deltaT, °C": -0.7
  },
  {
    "Compound": "COc1ccc2[nH]cc(C3CCN(CCCCN4C(=O)CC(c5c[nH]c6ccc(OC)cc56)C4=O)CC3)c2c1 (centres undefined)",
    "deltaT, °C": -1.2
  },
  {
    "Compound": "COc1ccc2[nH]cc(C3CCN(CCCCN4C(=O)CC(c5c[nH]c6ccc(F)cc56)C4=O)CC3)c2c1 (centres undefined)",
    "deltaT, °C": -1.4
  }
]

----------
Read-out record for Sodium-dependent serotonin transporter (Homo sapiens): Ki

[
  {
    "Molecule": "COc1ccc2[nH]cc(C3CC(=O)N(CCCCN4CCC(c5c[nH]c6ccc(F)cc56)CC4)C3=O)c2c1 (stereo not drawn)",
    "Ki, nM": 17.5
  },
  {
    "Molecule": "O=C1CC(c2c[nH]c3ccc(F)cc23)C(=O)N1CCCN1CCC(c2c[nH]c3ccc(F)cc23)CC1 (stereo not drawn)",
    "Ki, nM": 140
  },
  {
    "Molecule": "COc1ccc2[nH]cc(C3CCN(CCN4C(=O)CC(c5c[nH]c6ccc(OC)cc56)C4=O)CC3)c2c1 (stereo not drawn)",
    "Ki, nM": 63
  },
  {
    "Molecule": "COc1ccc2[nH]cc(C3CCN(CCCCN4C(=O)CC(c5c[nH]c6ccc(OC)cc56)C4=O)CC3)c2c1 (stereo not drawn)",
    "Ki, nM": 308
  },
  {
    "Molecule": "COc1ccc2[nH]cc(C3CCN(CCCCN4C(=O)CC(c5c[nH]c6ccc(F)cc56)C4=O)CC3)c2c1 (stereo not drawn)",
    "Ki, nM": 201
  },
  {
    "Molecule": "COc1ccc2[nH]cc(C3CCN(CCCN4C(=O)CC(c5c[nH]c6ccc(OC)cc56)C4=O)CC3)c2c1 (stereo not drawn)",
    "Ki, nM": 111
  },
  {
    "Molecule": "O=C1CC(c2c[nH]c3ccc(F)cc23)C(=O)N1CCN1CCC(c2c[nH]c3ccccc23)CC1 (stereo not drawn)",
    "Ki, nM": 102
  },
  {
    "Molecule": "COc1ccc2[nH]cc(C3CCN(CCN4C(=O)CC(c5c[nH]c6ccc(F)cc56)C4=O)CC3)c2c1 (stereo not drawn)",
    "Ki, nM": 1310
  }
]

----------
The following compounds are shown together with reported pKi values.
target: 5-hydroxytryptamine receptor 1A (Homo sapiens); assay: biochemical
pKi: −log10 of the molar value.
Measured quantity: pKi

[
  {
    "Compound": "COc1ccc2[nH]cc(C3CC(=O)N(CCCCN4CCC(c5c[nH]c6ccc(F)cc56)CC4)C3=O)c2c1 (stereo not given)",
    "Value": 8.31
  },
  {
    "Compound": "O=C1CC(c2c[nH]c3ccc(F)cc23)C(=O)N1CCCN1CCC(c2c[nH]c3ccc(F)cc23)CC1 (stereo not given)",
    "Value": 6.47
  },
  {
    "Compound": "O=C1CC(c2c[nH]c3ccc(F)cc23)C(=O)N1CCCN1CCC(c2c[nH]c3ccccc23)CC1 (stereo not given)",
    "Value": 6.84
  },
  {
    "Compound": "COc1ccc2[nH]cc(C3CC(=O)N(CCN4CCC(c5c[nH]c6ccc(F)cc56)CC4)C3=O)c2c1 (stereo not given)",
    "Value": 6.65
  },
  {
    "Compound": "COc1ccc2[nH]cc(C3CCCN(CCCCN4C(=O)CC(c5c[nH]c6ccccc56)C4=O)C3)c2c1 (stereo not given)",
    "Value": 7.11
  }
]
